# Assay Comment: qHTS Validation assay for Inhibitors of Plasmodium falciparum Dd2 growth in vitro; note: nearly all actives have a fitted effect of over 70% in size
# Assay Context: P. falciparum Dd2 in RBCs, SYBR Green growth, 72 h; series mostly up to 28.7 µM
Among all 4,100 compounds or so, about 1,600 (39%) were called active. About 25% were inconclusive and are not listed. Calls come from the whole dose curve; as a rule, active = well fitted inhibition curve with a large enough effect; inconclusive = small, poorly fitted or top-dose-only effect; inactive = no such curve, though single readings can be large or run the other way. The list shows a part of the results.
Classes to choose from: YES = active, NO = inactive

Q) Hello, I am checking results. What call was entered for COc1ccc(-c2ccc3ncc(Nc4cccc(C(F)(F)F)c4)n3n2)cn1 ?
A) YES

Q) Hello, I am checking results. What call was entered for CC(=O)c1c(N2CCN(C)CC2)[nH]c(-c2ccccc2)nc1=S ?
A) YES

Q) Hello, I am checking results. What call was entered for CCN(C(=O)Cn1nc2c3cc(F)ccc3n(Cc3cccc(C)c3)cc-2c1=O)c1cccc(C)c1 ?
A) NO

Q) Hello, I am checking results. What call was entered for COc1ccc(S(=O)(=O)N2CCN(C(=S)NC3CCCCC3)CC2)cc1 ?
A) YES

Q) Hello, I am checking results. What call was entered for CC(C)C(=O)Nc1oc(-c2ccccc2)cc1C#N ?
A) YES

Q) Hello, I am checking results. What call was entered for Cc1ccc(C)c(N=Nc2nc3ccccc3n2C)c1 ?
A) YES

Q) Hello, I am checking results. What call was entered for COc1cccc(NC(=O)N[C@H]2C[C@@H](c3nc(C)no3)N(C)C2)c1 ?
A) YES

Q) Hello, I am checking results. What call was entered for O=C(N[C@@H]1CN(c2ncccn2)C[C@H]1CO)c1cc2ccccc2[nH]1 ?
A) NO

Q) Hello, I am checking results. What call was entered for CN(C)c1ccc(C(=O)NCc2nnc3cc(-c4nc(C5CC5)no4)ccn23)cc1 ?
A) NO

Q) Hello, I am checking results. What call was entered for COc1ccc(-c2ccc3ncc(Nc4ccnc(N5CCOCC5)c4)n3n2)cn1 ?
A) YES

Q) Hello, I am checking results. What call was entered for CCN(C(=O)CSc1nc(-c2ccc(C(C)C)cc2)no1)c1cccc(C)c1 ?
A) YES

Q) Hello, I am checking results. What call was entered for CC(C)[C@@H]1CN(C(=O)CCn2ccc(=O)[nH]c2=O)C[C@H]1NS(C)(=O)=O ?
A) NO

Q) Hello, I am checking results. What call was entered for COC(=O)[C@@H]1Cc2ncn(C(C)C)c2CN1S(=O)(=O)c1cccc(C(F)(F)F)c1 ?
A) NO

Q) Hello, I am checking results. What call was entered for CCN(Cc1nc2ccccc2n1C)c1ccccc1 ?
A) NO

Q) Hello, I am checking results. What call was entered for COC(=O)c1cccc(NC(=S)N[C@H]2CO[C@H]3[C@@H]2OC[C@H]3OC(=O)Nc2ccccc2)c1 ?
A) NO

Q) Hello, I am checking results. What call was entered for CCn1nccc1C(=O)N1CCC(C(=O)N2CCCCCCNC(=O)CC2)CC1 ?
A) NO

Q) Hello, I am checking results. What call was entered for Clc1ccc(-c2nc(N3CCOCC3)nc3ccccc23)cc1 ?
A) NO

Q) Hello, I am checking results. What call was entered for CC12CC3CC(C)(C1)CC(Nc1nc(N4CCOCC4)nc4ccccc14)(C3)C2 ?
A) YES

Q) Hello, I am checking results. What call was entered for Cc1ccc(S(=O)(=O)N2CCC(C(=O)NC3CC3)CC2)cc1 ?
A) NO

Q) Hello, I am checking results. What call was entered for Cc1cccc(C(=O)NCc2nnc3c(-c4nc(C(C)C)no4)cccn23)c1 ?
A) NO

Q) Hello, I am checking results. What call was entered for COc1ccc(C(=O)N2CCC(C3CCN(S(C)(=O)=O)CC3)C2)c(OC)n1 (stereo unspecified) ?
A) NO

* * *

# Assay Comment: qHTS Validation assay for Inhibitors of Plasmodium falciparum Dd2 growth in vitro; note: nearly all actives have a fitted effect of over 70% in size
# Assay Context: P. falciparum Dd2 in RBCs, SYBR Green growth, 72 h; series mostly up to 28.7 µM
Hit rate of the full screen: of about 4,100 compounds, about 1,600 (39%) were called active. Another 25% or so got no clear call; they are omitted. Calls come from the whole dose curve; as a rule, active = well fitted inhibition curve with a large enough effect; inconclusive = small, poorly fitted or top-dose-only effect; inactive = no such curve, though single readings can be large or run the other way. Some of the results follow.
Classes to choose from: active, inactive

Q) Hello, I am checking results. What call was entered for Cc1cccc(-c2cc(C3CCN(C(=O)Nc4ccccc4Cl)CC3)[nH]n2)c1 ?
A) inactive

Q) Hello, I am checking results. What call was entered for Cc1ccc(CN2COc3cc(C)c4c(oc(=O)c5ccccc54)c3C2)cc1 ?
A) active

Q) Hello, I am checking results. What call was entered for CN(Cc1ccc(-c2ccccc2)cc1)C(=O)C1CC1 ?
A) inactive

Q) Hello, I am checking results. What call was entered for CCc1noc(-c2cccn3c(CNC(=O)COc4ccc(F)cc4)nnc23)n1 ?
A) inactive

Q) Hello, I am checking results. What call was entered for Cc1cc2c(c3oc(=O)c4ccccc4c13)CN(Cc1ccc(F)cc1)CO2 ?
A) active

* * *

# Assay Comment: qHTS Validation assay for Inhibitors of Plasmodium falciparum Dd2 growth in vitro; note: nearly all actives have a fitted effect of over 70% in size; note: potency is the fitted concentration of half-maximal effect
# Assay Context: P. falciparum Dd2 in RBCs, SYBR Green growth, 72 h; series mostly up to 28.7 µM
Screen size: about 4,100 compounds; about 1,600 (39%) were called active. About 25% were inconclusive and are not listed. Some of the results follow.
Assay Readout: Potency

# example entries with known answers
Compound: CCn1cc(CN2CCCC(c3nc(C(C)C)no3)CCNC(=O)CC2)cn1 (stereo not given)
Assay Readout: Potency
Result: inactive
--
Compound: CC(C)c1ccccc1Oc1c(C(F)(F)F)oc2c(CN3CCN(C)CC3)c(O)ccc2c1=O
Assay Readout: Potency
Result: 0.668 µM (active)
--
Compound: Cc1nn(-c2ccc(C(C)C)cc2)c(C)c1[C@@H]1C=C[C@@H](NCc2ccccc2)C1
Assay Readout: Potency
Result: 21.7 µM (active)
--
Compound: CCN(CC)CCCC(C)Nc1cc(/C=C/c2ccccc2Cl)nc2cc(Cl)ccc12 (stereo not given)
Assay Readout: Potency
Result: 0.842 µM (active)
--
Compound: Cc1ccc(-n2nc3c(c2NC(=O)C(C)C)CS(=O)(=O)C3)c(C)c1
Assay Readout: Potency
Result: inactive
--
Compound: COc1ccc(C(=O)N2CCC(n3c(C)cnc3-c3ccccc3)CC2)c(OC)c1
Assay Readout: Potency
Result: inactive
--
Compound: Cc1nc2c(c(-c3ccc(O)cc3)n1)CN(Cc1ccc(C(F)(F)F)cc1)CCC2
Assay Readout: Potency
Result: 4.22 µM (active)
--
Compound: CCN1CCN(Cc2ccc(NC(=O)c3cc(NC(=O)c4cnn(-c5ccccc5)c4N)cc(OC)c3)cc2C(F)(F)F)CC1
Assay Readout: Potency
Result: 2.11 µM (active)
--
Compound: CC(Oc1ccc(Br)cc1)c1nc2c3ccccc3nc(=S)n2[nH]1 (stereo not given)
Assay Readout: Potency
Result: inactive
--
Compound: Cc1ccc(NC(=O)c2c(C)oc3ccc(O)c(CN(C)Cc4ccccc4)c23)c(C)c1
Assay Readout: Potency
Result: 5.96 µM (active)

Q) Given the compound COc1cccc(CNC(=O)[C@@H]2C[C@@H](O)CN2C2CCN(C(=O)c3ccc(OC)c(F)c3)CC2)c1 , write its reported Potency.
A) inactive

Q) Given the compound COCCNC(=O)[C@@H]1C[C@@H](O)CN1C1CCN(C(=O)Cc2ccccc2)CC1 , write its reported Potency.
A) inactive

* * *

# Assay Comment: qHTS Validation assay for Inhibitors of Plasmodium falciparum Dd2 growth in vitro; note: nearly all actives have a fitted effect of over 70% in size
# Assay Context: P. falciparum Dd2 in RBCs, SYBR Green growth, 72 h; series mostly up to 28.7 µM
In all, about 4,100 compounds went through this assay and about 1,600 (39%) were called active. Not shown: some 25% with an inconclusive outcome. Calls follow the shape of the dose curve; as a rule, active = well fitted inhibition curve with a large enough effect; inconclusive = small, poorly fitted or top-dose-only effect; inactive = no such curve, though single readings can be large or run the other way. Some of the results follow.
Classes to choose from: active, inactive

Q) Hello, I am checking results. What call was entered for CCC(=O)C1=C(c2cccc([N+](=O)[O-])c2)N(C(=O)CC)n2c(nnc2-c2ccccc2)S1 ?
A) active

Q) Hello, I am checking results. What call was entered for N#Cc1ccc(CN2CCc3n[nH]c(=O)n3CC2)cc1 ?
A) inactive

Q) Hello, I am checking results. What call was entered for COc1ccc(C2=C(C(C)=O)Sc3nnc(-c4ccc(Cl)cc4)n3N2C(C)=O)cc1OC ?
A) active

Q) Hello, I am checking results. What call was entered for COC(=O)c1[nH]c2cccc(Cl)c2c1NC(=O)CN1CCCCC1C (stereo not given) ?
A) inactive

Q) Hello, I am checking results. What call was entered for COc1ccc(-c2noc(N3CCN(c4ccc(C)cc4)C(C)C3)n2)cc1OC (stereo not given) ?
A) inactive

Q) Hello, I am checking results. What call was entered for COc1cc(OC)c(OC)cc1CN1CCc2nc(N(C)C)[nH]c(=O)c2CC1 ?
A) inactive

Q) Hello, I am checking results. What call was entered for c1ccc(-c2nc(NCc3ccco3)c3ccccc3n2)nc1 ?
A) active

Q) Hello, I am checking results. What call was entered for CCC(=O)C1=C(c2cccc([N+](=O)[O-])c2)N(C(=O)CC)n2c(nnc2C2CCCCC2)S1 ?
A) active

Q) Hello, I am checking results. What call was entered for c1ccc(CCNc2nc(-c3ccccn3)nc3ccccc23)cc1 ?
A) active

Q) Hello, I am checking results. What call was entered for O=C(CCc1ccccc1)N1CCc2c(nc(-c3ccc(F)cc3)[nH]c2=O)C1 ?
A) inactive
